experiment: Photodecomposition of Al and Si phthalocyanines in toluene in the presence of squalene under white light; format: physicochemical; conditions: time 8 h, radiation 344 kJ/mol × 10^−6; toluene ~9 μM, squalene 1:1000 mole ratio, white light 1.2 kJ/s/m^2, air

# Compound, decomp (%)
measured = [
    ("CCC[Si](CCC)(CCC)[O][Al]1[n]2c3c4ccccc4c2N=C2N=C(N=c4c5ccccc5c([n]41)=NC1=NC(=N3)c3ccccc31)c1ccccc12", 30),
    ("CCCCCC[Si](CCCCCC)(CCCCCC)O[Si]1(O[Si](CCCCCC)(CCCCCC)CCCCCC)n2c3c4ccccc4c2N=C2N=C(N=c4c5ccccc5c(n41)=NC1=NC(=N3)c3ccccc31)c1ccccc12", 26),
    ("CCC[Si](CCC)(CCC)O[Si]1(O[Si](CCC)(CCC)CCC)n2c3c4ccccc4c2N=C2N=C(N=c4c5ccccc5c(n41)=NC1=NC(=N3)c3ccccc31)c1ccccc12", 7),
    ("CN(C)CCC[Si](C)(C)O[Si]1(O)n2c3c4ccccc4c2N=C2N=C(N=c4c5ccccc5c(n41)=NC1=NC(=N3)c3ccccc31)c1ccccc12 (centres unmarked)", 96),
    ("CCCCCC[Si](CCCCCC)(CCCCCC)O[Si]1(O)n2c3c4ccccc4c2N=C2N=C(N=c4c5ccccc5c(n41)=NC1=NC(=N3)c3ccccc31)c1ccccc12 (centres unmarked)", 42),
    ("CCCCCCCC[Si](CCCCCCCC)(CCCCCCCC)O[Si]1(O[Si](CCCCCCCC)(CCCCCCCC)CCCCCCCC)n2c3c4ccccc4c2N=C2N=C(N=c4c5ccccc5c(n41)=NC1=NC(=N3)c3ccccc31)c1ccccc12", 26),
    ("CC[Si](CC)(CC)O[Si]1(O[Si](CC)(CC)CC)n2c3c4ccccc4c2N=C2N=C(N=c4c5ccccc5c(n41)=NC1=NC(=N3)c3ccccc31)c1ccccc12", 17),
    ("C[Si](C)(CCCI)O[Si]1(O)n2c3c4ccccc4c2N=C2N=C(N=c4c5ccccc5c(n41)=NC1=NC(=N3)c3ccccc31)c1ccccc12 (centres unmarked) [Pc 58, SiPc[OSiMe2(CH2)3I](OH)]", 44),
    ("CCCCCC[Si](CCCCCC)(CCCCCC)[O][Al]1[n]2c3c4ccccc4c2N=c2c4ccccc4c([n]21)=NC1=NC(=NC2=NC(=N3)c3ccccc32)c2ccccc21", 29),
    ("C[SiH2]O[Si]1(O[SiH2]C)n2c3c4ccccc4c2N=C2N=C(N=c4c5ccccc5c(n41)=NC1=NC(=N3)c3ccccc31)c1ccccc12 (centres unmarked)", 77),
    ("C[Si](C)(C)O[Si]1(O[Si](C)(C)C)n2c3c4ccccc4c2N=C2N=C(N=c4c5ccccc5c(n41)=NC1=NC(=N3)c3ccccc31)c1ccccc12", 36),
]
